Test system: GM7373 cells
Assay: Cell proliferation assay, endothelial GM7373 cells
Assay type: cell-based, bovine
Conditions: dose-response, read-out: ID50, FGF2-antagonist activity on GM7373 cell proliferation
Ends that are not written are not given here.
property: IC50 (µM)
Please give a number only; it is taken to be in µM.

Response field IC50 (GM7373 cells) for item RGELQRLREELGRLAESLARPCAPGAPAE [PTX3(82-110)] : 30

----------
Biological target: FGF2 (Homo sapiens)
Sequence (P09038 134-288): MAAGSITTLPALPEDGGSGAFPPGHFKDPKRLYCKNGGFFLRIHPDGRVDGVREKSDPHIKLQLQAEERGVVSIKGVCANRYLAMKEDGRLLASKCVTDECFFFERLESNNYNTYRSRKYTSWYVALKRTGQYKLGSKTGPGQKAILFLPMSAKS
Experiment: BIAcore binding assay, FGF2 binding to PTX3 immobilized to a sensorchip
Parameters: made in house; host or cells: FGF2: E. coli; PTX3: Chinese hamster ovary cells
Details: FGF2 0.8 μM, increasing peptide concentrations
property: inhibition of FGF2 binding to PTX3 immobilized to a BIAcore sensorchip

{"monomer.sequence": "RGELQRLREELGRLAESLAR [PTX3(82-101)]", "meas.value": "ineffective"}
{"monomer.sequence": "DNEIDNGLHPTEDPTPCDCGQEHSEWDKLF [PTX3(31-60)]", "meas.value": "no inhibitory effect"}
{"monomer.sequence": "DKLFIMLENSQMRERMLLQATDDVLRGEL [PTX3(57-85)]", "meas.value": "no inhibitory effect"}
{"monomer.sequence": "RGELQRLREELGRLA [PTX3(82-96)]", "meas.value": "ineffective"}
